- target system: SIRT1 (Homo sapiens)
- assay summary: TAMRA based mass spectrometry assay of SIRT1 activity
- Type: biochemical
- condition info: percent maximum fold activation of SIRT1; TAMRA peptide substrate; read-out: TAMRA % Fold Act
property name: Emax

1. O=C(Nc1cccnc1)c1cnc2ccc(-c3c(F)cccc3F)nn12; < 350%
2. CS(=O)(=O)c1ccccc1-c1ccc2ncc(C(=O)Nc3ccncc3)n2n1; < 350%
3. O=C(Nc1cnc2ccc(-c3ccccc3C(F)(F)F)nn12)c1ccc(CN2CCOCC2)nc1; < 350%
4. O=C(Nc1cccnc1)c1cnc2ccc(-c3ccccc3F)nn12; < 350%
5. O=C(Nc1ccccn1)c1cnc2ccc(-c3ccccc3Cl)nn12; < 350%

###

- target system: SIRT1 (Homo sapiens, UniProt Q96EB6)
- Sequence (Q96EB6 whole entry): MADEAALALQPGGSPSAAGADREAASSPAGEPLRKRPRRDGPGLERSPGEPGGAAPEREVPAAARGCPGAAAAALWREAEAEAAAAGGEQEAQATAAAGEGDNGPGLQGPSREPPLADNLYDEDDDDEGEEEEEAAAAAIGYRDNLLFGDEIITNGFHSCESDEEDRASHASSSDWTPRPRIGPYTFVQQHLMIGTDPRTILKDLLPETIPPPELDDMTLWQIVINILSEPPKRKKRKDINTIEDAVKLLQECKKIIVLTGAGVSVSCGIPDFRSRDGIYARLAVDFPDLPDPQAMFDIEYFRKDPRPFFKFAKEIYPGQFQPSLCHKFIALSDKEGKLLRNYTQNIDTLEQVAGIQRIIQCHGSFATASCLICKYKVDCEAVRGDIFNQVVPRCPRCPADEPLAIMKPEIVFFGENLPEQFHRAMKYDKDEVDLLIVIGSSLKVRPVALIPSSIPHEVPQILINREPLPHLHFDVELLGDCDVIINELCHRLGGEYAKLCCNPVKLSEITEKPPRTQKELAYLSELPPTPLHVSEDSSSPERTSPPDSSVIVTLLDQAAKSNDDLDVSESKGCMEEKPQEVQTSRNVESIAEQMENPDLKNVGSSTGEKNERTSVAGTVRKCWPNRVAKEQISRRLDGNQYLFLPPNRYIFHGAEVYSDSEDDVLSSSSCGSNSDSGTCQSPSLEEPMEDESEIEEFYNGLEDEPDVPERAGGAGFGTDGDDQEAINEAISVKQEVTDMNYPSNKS
- assay summary: TAMRA based mass spectrometry assay of SIRT1 activity
- Type: biochemical
- condition info: TAMRA assay; concentration giving 150% activation of SIRT1
property name: TAMRA EC1.5 (μM)

1) O=C(Nc1cnc2ccc(-c3ccccc3F)nn12)c1cscn1; B (EC1.5 1-25 μM)
2) CCOc1ccc(NC(=O)c2c(C)nc3ccc(-c4cccc(F)c4)nn23)nn1; B (EC1.5 1-25 μM)
3) O=C(Nc1cnc2ccc(-c3ccccc3F)nn12)c1cnccn1; B (EC1.5 1-25 μM)
4) Cc1nc(C(=O)Nc2cnc3ccc(-c4ccccc4C#N)nn23)cs1; B (EC1.5 1-25 μM)

###

- target system: SIRT1 (Homo sapiens)
- assay summary: TAMRA based mass spectrometry assay of SIRT1 activity
- Assay type: biochemical
- condition info: TAMRA assay; concentration giving 150% activation of SIRT1
property name: TAMRA EC1.5 (μM)

1. Cc1cnc(C(=O)Nc2cnc3ccc(-c4ccccc4F)nn23)s1; B (EC1.5 1-25 μM)
2. O=C(Nc1cnc2ccc(-c3ccccc3Cl)nn12)c1ccncn1; B (EC1.5 1-25 μM)
3. O=C(Nc1cnc2ccc(-c3ccccc3Cl)nn12)c1cnccn1; B (EC1.5 1-25 μM)
4. Cc1ccnc(C(=O)Nc2cnn3ccc(-c4ccccc4OC(F)(F)F)nc23)c1; A (EC1.5<1 μM)
5. CCOc1cc(NC(=O)c2cnn3ccc(-c4ccccc4C(F)(F)F)nc23)ccn1; A (EC1.5<1 μM)
6. Cc1ccnc(NC(=O)c2c(C)nn3ccc(-c4ccccc4C(F)(F)F)nc23)c1; A (EC1.5<1 μM)
7. Cc1nc2c(OC[C@H](O)CO)cc(-c3ccccc3C(F)(F)F)nn2c1C(=O)Nc1cccnn1; A (EC1.5<1 μM)
8. Cc1cncc(NC(=O)c2c(C)nn3ccc(-c4ccccc4Br)nc23)c1; A (EC1.5<1 μM)
9. Cc1ccc(NC(=O)c2c(C)nn3ccc(-c4ccccc4C(F)(F)F)nc23)nc1; A (EC1.5<1 μM)
10. Cc1nc2ccc(-c3ccccc3C(F)(F)F)nn2c1NC(=O)c1cccc(N2CCC2)n1; A (EC1.5<1 μM)
11. O=C(Nc1cnn2ccc(-c3ccccc3C(F)(F)F)nc12)c1cncc(OC[C@@H](O)CO)n1; A (EC1.5<1 μM)
12. COc1ccc(NC(=O)c2c(C)nc3ccc(-c4ccccc4Br)nn23)nn1; A (EC1.5<1 μM)
13. O=C(Nc1cccc(N2CCOCC2)n1)c1cnn2ccc(-c3ccccc3C(F)(F)F)nc12; A (EC1.5<1 μM)
14. Cc1cc(C)nc(NC(=O)c2c(C)nc3ccc(-c4cccc(OC[C@H](O)CO)c4)nn23)c1; A (EC1.5<1 μM)
15. O=C(Nc1cnc2ccc(-c3ccccc3Cl)nn12)c1ccccn1; A (EC1.5<1 μM)
16. CCOc1nccc(NC(=O)c2cnn3ccc(-c4ccccc4C(F)(F)F)nc23)n1; A (EC1.5<1 μM)

Provenance of the data: patent US9957271B2
